# Tested on: RPMI-8226 leukemia
# method description: NCI tumour cell line growth inhibition, 48 h
measured parameter: TGI

# compound, meas value
rows = [
    ("COc1ccc2c(c1)CC[C@@H]1[C@@H]2CC[C@]2(C)C(=O)/C(=C/c3cc(OC)c(OC)c(OC)c3)C[C@@H]12", "> 100 µM"),
    ("COc1ccc(-c2csc3c2-n2cccc2C3=O)cc1O", "3.16 µM"),
    ("COc1ccc(-c2cc(-c3nnc(SCC(=O)Nc4ccc(C(C)=O)cc4)o3)c3ccccc3n2)cc1", "> 100 µM"),
    ("COc1cc(C(SCc2ccccc2)SCc2ccccc2)ccc1O", "> 10 µM"),
]

Each of the following entries comes with a recorded value; kindly state TGI for each.
1. C=C(C)[C@@H]1CC[C@]2(C(=O)NCCNCCNCCN)CC[C@]3(C)[C@H](CC[C@@H]4[C@@]5(C)CCC(=O)C(C)(C)[C@@H]5CC[C@]43C)[C@@H]12
2. COC(=O)C1=Cc2c(cc(OC)c(OC)c2OC)[C@H](c2ccc(OC)c(OC)c2OC)C1C(=O)OC (some centres undefined)

Result:
1: 22 µM; 2: > 100 µM

Each of the following entries comes with a recorded value; kindly state TGI for each.
1. COc1cc(/C=C2\C(=O)Nc3ccccc32)cc(OC)c1OC
2. Cc1ccc(F)cc1NC(=O)c1cc(Cl)ccc1Nc1ccccc1
3. COc1ccc(-n2c(C)nc3c(c(C)nn3-c3ccccc3)c2=O)cc1

Result:
1: 61.5 µM; 2: > 100 µM; 3: > 33.6 µM

###

# Tested on: SK-OV-3 ovarian
# method description: NCI tumour cell line growth inhibition, 48 h
I'd be grateful if you could share measured TGI for these entries.

# compound, TGI
measured = [
    ("COc1ccc(/C=C2\\CN(C)Cc3c2[nH]c(=O)c(C#N)c3-c2ccc(OC)cc2)cc1", "> 100 µM"),
    ("CC1(C)Cc2c(Br)c(Br)c(Br)c(OCC(O)CN3CCOCC3)c2O1 (stereo not given)", "29.6 µM"),
    ("COc1ccc2c(c1)-c1oc3ccccc3c(=O)c1CO2", "> 100 µM"),
    ("COc1cc2ncn(-c3cc(OCc4ccccc4S(C)(=O)=O)c(C#N)s3)c2cc1OC", "> 25 µM"),
    ("OCCO[P+]1(OCCO)n2c3ccc2C(c2ccccc2)=C2C=CC(=N2)C(c2ccccc2)=c2ccc(n21)=C(c1ccccc1)C1=NC(=C3c2ccccc2)C=C1", "0.569 µM"),
]

Each of the following entries comes with a recorded value; kindly state TGI for each.
1. COc1cc(C2S/C(=C/c3ccccc3)C(=O)N2c2cccc([N+](=O)[O-])c2)cc(OC)c1OC (stereo not given)
2. COc1ccc2c(c1)CC[C@@H]1[C@@H]2CC[C@]2(C)C(=O)/C(=C/c3cc(OC)c(OC)c(OC)c3)C[C@@H]12

Result:
1: > 100 µM; 2: > 100 µM

Each of the following entries comes with a recorded value; kindly state TGI for each.
1. Nc1nc(SCCC/C=C/I)nc2c1ncn2C1OC(CO)C(O)C1O (stereo not given)
2. CCOC(=O)/C(=C\c1ccc(F)cc1)C(C)=O
3. Cc1ccc(F)cc1NC(=O)c1cc(Cl)ccc1Nc1ccccc1
4. CC(C)CCC/C(CBr)=C(\Cl)CCl
5. c1ccc(C2=C(c3ccccc3)P(c3ccccc3)C2)cc1 (stereo not given)
6. C=C1C(=O)O[C@H]2C[C@@H]1CCC1(C)OC1CC/C(C)=C/CC[C@H]2C (stereo not given in full)

Result:
1. > 202 µM
2. > 100 µM
3. > 100 µM
4. 22.3 µM
5. > 100 µM
6. 37.1 µM

Each of the following entries comes with a recorded value; kindly state TGI for each.
1. CC(=N\N=C\c1ccccn1)/C(C)=N/N=C(C)/C(C)=N/N=C(C)/C(C)=N/N=C/c1ccccn1
2. Clc1ncnc2c1ncn2CCCCCCCCCCCCn1cnc2c(Cl)ncnc21
3. Cc1ccc(Oc2nc3ccccc3cc2-c2nnc(Cn3c(COc4ccccc4)nc4ccccc43)o2)cc1
4. CC(C)(C)c1cc(C2COC(=O)COCC(=O)OCCOCCOCCO2)cc(C(C)(C)C)c1O (stereo not given)
5. COc1ccc(C(=O)CC(c2ccc(OC)c(OC)c2)c2c(O)c3ccccc3oc2=O)cc1OC (stereo not given)

Result:
1. > 100 µM
2. 33.3 µM
3. 32.7 µM
4. 55.9 µM
5. > 100 µM

Each of the following entries comes with a recorded value; kindly state TGI for each.
1. COc1ccc(-c2ccccc2)cc1-c1c(Nc2cc(Cl)cc(Cl)c2O)c(=O)c1=O
2. NC(=O)c1c2c(cc3c(=O)c4ccccc4[nH]c13)CCCC2
3. CN(C)CCn1c(=O)c2ccc3c4c(nn3CCN(C)C)c3ccccc3n(c1=O)c24
4. COC(=O)[C@@H]1CCCN1C(=O)[C@H]1CCCN1C(=O)[C@@H](Cc1c[nH]c2ccccc12)NC(=S)Nc1cc(C(F)(F)F)cc(C(F)(F)F)c1
5. c1cncc(CNc2ncn[nH]2)c1
6. NC1=NC(c2ccc(F)cc2)C2=C(N1)c1ccc3ccccc3c1OCC2 (stereo not given)
7. CCCCCCCCC/C=C1\CC(CO)(COC(=O)c2ccccc2)OC1=O (stereo not given)

Result:
1. 4.25 µM
2. > 100 µM
3. 3.43 µM
4. 18.9 µM
5. > 100 µM
6. > 100 µM
7. 43.3 µM
